System: MDA MB-231 human breast cancer cells
Assay: Cell cycle analysis by flow cytometry (Vindelov method)
Type: cell-based
Conditions: Table 2; natural versus synthetic; 200 μg/mL; 24 hr
Lab note - cut at 20% for % G2/M: Condition met if strictly below, Condition not met if not.

Oc1cc(O)c2c(c1)O[C@H](c1ccc(O)c(O)c1)[C@H](O)[C@H]2c1c(O)cc(O)c2c1O[C@H](c1ccc(O)c(O)c1)[C@H](O)[C@H]2c1c(O)cc(O)c2c1O[C@H](c1ccc(O)c(O)c1)[C@H](O)[C@H]2c1c(O)cc(O)c2c1O[C@H](c1ccc(O)c(O)c1)[C@H](O)C2 [Synthetic tetramer, epicatechin (4β,8)3-tetramer] | Condition met
Oc1cc(O)c2c(c1)O[C@H](c1ccc(O)c(O)c1)[C@H](O)[C@H]2c1c(O)cc(O)c2c1O[C@H](c1ccc(O)c(O)c1)[C@H](O)[C@H]2c1c(O)cc(O)c2c1O[C@H](c1ccc(O)c(O)c1)[C@H](O)[C@H]2c1c(O)cc(O)c2c1O[C@H](c1ccc(O)c(O)c1)[C@H](O)C2 [Natural tetramer, epicatechin (4β,8)3-tetramer] | Condition met
Oc1cc(O)c2c(c1)O[C@H](c1ccc(O)c(O)c1)[C@H](O)[C@H]2c1c(O)cc(O)c2c1O[C@H](c1ccc(O)c(O)c1)[C@H](O)[C@H]2c1c(O)cc(O)c2c1O[C@H](c1ccc(O)c(O)c1)[C@H](O)[C@H]2c1c(O)cc(O)c2c1O[C@H](c1ccc(O)c(O)c1)[C@H](O)[C@H]2c1c(O)cc(O)c2c1O[C@H](c1ccc(O)c(O)c1)[C@H](O)C2 [Synthetic pentamer, epicatechin (4β,8)4-pentamer] | Condition met
Oc1cc(O)c2c(c1)O[C@H](c1ccc(O)c(O)c1)[C@H](O)[C@H]2c1c(O)cc(O)c2c1O[C@H](c1ccc(O)c(O)c1)[C@H](O)[C@H]2c1c(O)cc(O)c2c1O[C@H](c1ccc(O)c(O)c1)[C@H](O)[C@H]2c1c(O)cc(O)c2c1O[C@H](c1ccc(O)c(O)c1)[C@H](O)[C@H]2c1c(O)cc(O)c2c1O[C@H](c1ccc(O)c(O)c1)[C@H](O)C2 [Natural pentamer, epicatechin (4β,8)4-pentamer] | Condition met
Oc1cc(O)c2c(c1)O[C@H](c1ccc(O)c(O)c1)[C@H](O)[C@H]2c1c(O)cc(O)c2c1O[C@H](c1ccc(O)c(O)c1)[C@H](O)[C@H]2c1c(O)cc(O)c2c1O[C@H](c1ccc(O)c(O)c1)[C@H](O)C2 [Synthetic trimer, epicatechin (4β,8)2-trimer] | Condition not met
Oc1cc(O)c2c(c1)O[C@H](c1ccc(O)c(O)c1)[C@H](O)[C@H]2c1c(O)cc(O)c2c1O[C@H](c1ccc(O)c(O)c1)[C@H](O)[C@H]2c1c(O)cc(O)c2c1O[C@H](c1ccc(O)c(O)c1)[C@H](O)C2 [Natural trimer, epicatechin (4β,8)2-trimer] | Condition not met

* * *

Test system: MDA MB-231 human breast cancer cells
Assay: Cell cycle analysis by flow cytometry (Vindelov method)
Assay type: cell-based
Conditions: Table 2; natural versus synthetic; 200 μg/mL; 24 hr
Below, each entry is listed with its recorded % S.
value_kind: % S (%)

Oc1cc(O)c2c(c1)O[C@H](c1ccc(O)c(O)c1)[C@H](O)[C@H]2c1c(O)cc(O)c2c1O[C@H](c1ccc(O)c(O)c1)[C@H](O)[C@H]2c1c(O)cc(O)c2c1O[C@H](c1ccc(O)c(O)c1)[C@H](O)[C@H]2c1c(O)cc(O)c2c1O[C@H](c1ccc(O)c(O)c1)[C@H](O)C2 [Synthetic tetramer, epicatechin (4β,8)3-tetramer] | 39.39
Oc1cc(O)c2c(c1)O[C@H](c1ccc(O)c(O)c1)[C@H](O)[C@H]2c1c(O)cc(O)c2c1O[C@H](c1ccc(O)c(O)c1)[C@H](O)[C@H]2c1c(O)cc(O)c2c1O[C@H](c1ccc(O)c(O)c1)[C@H](O)[C@H]2c1c(O)cc(O)c2c1O[C@H](c1ccc(O)c(O)c1)[C@H](O)C2 [Natural tetramer, epicatechin (4β,8)3-tetramer] | 43.37
Oc1cc(O)c2c(c1)O[C@H](c1ccc(O)c(O)c1)[C@H](O)[C@H]2c1c(O)cc(O)c2c1O[C@H](c1ccc(O)c(O)c1)[C@H](O)[C@H]2c1c(O)cc(O)c2c1O[C@H](c1ccc(O)c(O)c1)[C@H](O)C2 [Natural trimer, epicatechin (4β,8)2-trimer] | 48.49
Oc1cc(O)c2c(c1)O[C@H](c1ccc(O)c(O)c1)[C@H](O)[C@H]2c1c(O)cc(O)c2c1O[C@H](c1ccc(O)c(O)c1)[C@H](O)[C@H]2c1c(O)cc(O)c2c1O[C@H](c1ccc(O)c(O)c1)[C@H](O)[C@H]2c1c(O)cc(O)c2c1O[C@H](c1ccc(O)c(O)c1)[C@H](O)[C@H]2c1c(O)cc(O)c2c1O[C@H](c1ccc(O)c(O)c1)[C@H](O)C2 [Synthetic pentamer, epicatechin (4β,8)4-pentamer] | 23.36
Oc1cc(O)c2c(c1)O[C@H](c1ccc(O)c(O)c1)[C@H](O)[C@H]2c1c(O)cc(O)c2c1O[C@H](c1ccc(O)c(O)c1)[C@H](O)[C@H]2c1c(O)cc(O)c2c1O[C@H](c1ccc(O)c(O)c1)[C@H](O)C2 [Synthetic trimer, epicatechin (4β,8)2-trimer] | 49.57
Oc1cc(O)c2c(c1)O[C@H](c1ccc(O)c(O)c1)[C@H](O)[C@H]2c1c(O)cc(O)c2c1O[C@H](c1ccc(O)c(O)c1)[C@H](O)[C@H]2c1c(O)cc(O)c2c1O[C@H](c1ccc(O)c(O)c1)[C@H](O)[C@H]2c1c(O)cc(O)c2c1O[C@H](c1ccc(O)c(O)c1)[C@H](O)[C@H]2c1c(O)cc(O)c2c1O[C@H](c1ccc(O)c(O)c1)[C@H](O)C2 [Natural pentamer, epicatechin (4β,8)4-pentamer] | 38.25
